target-or-system: T1, Lsb3, P43603
T1 sequence (P43603 385-451, looked up): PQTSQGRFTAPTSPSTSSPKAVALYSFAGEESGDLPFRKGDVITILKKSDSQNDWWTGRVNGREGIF
measurement-notes: SPOT array
cond: median of control spots 406
Measured SPOT intensity values are reported for all entries that follow.
Answer field: number only, no words.

Use these answered entries as a reference point.
LSKRLPLRFPEHTSS
0
PPLPRAPPVPPATFE
0

Complete the entry with SPOT intensity for "FFRRSELYLPNSSKA"
0

Source listed as paper PMC2756588.
